EC50 values for the compounds below.
target: Nuclear factor erythroid 2-related factor 2 (Homo sapiens, UniProt Q16236); test: Induction of Nrf2-mediated ARE activity in human HepG2-ARE-C8 cells after 12 hrs by luciferase reporter gene assay

The following compounds have reported results that may help.
>>> data_value("O=C(/C=C1\\NCC2c3ccccc3CCN2C1=O)c1ccccc1Cl (stereo not given)")
"> 100 µM"
>>> data_value("COc1ccc2c(c1)CCN1C(=O)/C(=C/C(=O)c3cccc(F)c3)NCC21 (stereo not given)")
"> 100 µM"
>>> data_value("COc1ccc2c(c1)C1CN/C(=C\\C(=O)c3cccc(Cl)c3)C(=O)N1CC2 (stereo not given)")
"> 100 µM"
>>> data_value("O=C(/C=C1\\NCC2c3ccccc3CCN2C1=O)c1ccccc1 (stereo not given)")
"> 100 µM"

Could you now consider this next compound?
Summary: COc1cc2c(cc1OC)C1CN/C(=C\C(=O)c3cccc(F)c3)C(=O)N1CC2 (stereo not given) , Nuclear factor erythroid 2-related factor 2 (Homo sapiens, UniProt Q16236), EC50 = 92 µM

###

target: Nuclear factor erythroid 2-related factor 2 (Homo sapiens); experiment: Induction of Nrf2-mediated ARE activity in human HepG2-ARE-C8 cells after 12 hrs by luciferase reporter gene assay
Recorded EC50 by entry

>>> data_value("COc1cccc(C(=O)/C=C2\\NCC3c4cc(OC)ccc4CCN3C2=O)c1 (stereo unspecified)")
"> 100 µM"
>>> data_value("COc1ccc2c(c1)C1CN/C(=C\\C(=O)c3cccc(F)c3)C(=O)N1CC2 (stereo unspecified)")
"> 100 µM"
>>> data_value("COc1ccc2c(c1)C1CN/C(=C\\C(=O)c3ccccc3F)C(=O)N1CC2 (stereo unspecified)")
"> 100 µM"
>>> data_value("COc1cc2c(cc1OC)C1CN/C(=C\\C(=O)c3cccc([N+](=O)[O-])c3)C(=O)N1CC2 (stereo unspecified)")
"49.6 µM"

EC50 reading for COc1cccc2c1CCN1C(=O)/C(=C/C(=O)c3cccc(F)c3)NCC21 (stereo unspecified) : > 100 µM

Lab book: EC50 of O=C(/C=C1\NCC2c3ccccc3CCN2C1=O)c1ccc(Cl)cc1Cl (stereo unspecified) noted as > 100 µM

Field EC50 (entry COc1ccc(C(=O)/C=C2\NCC3c4ccccc4CCN3C2=O)cc1 (stereo unspecified) ) reads > 100 µM

Data point: O=C(/C=C1\NCC2c3ccccc3CCN2C1=O)c1cccc(F)c1 (stereo unspecified) ; EC50 = > 100 µM

The molecule listed as COc1cc2c(cc1OC)C1CN/C(=C\C(=O)c3ccc(F)cc3)C(=O)N1CC2 (stereo unspecified) shows EC50 equal to 81.5 µM

Per the record, COc1cc2c(cc1OC)C1CN/C(=C\C(=O)c3cccc(Cl)c3)C(=O)N1CC2 (stereo unspecified) has EC50 of > 100 µM

The reported EC50 of the molecule O=C(/C=C1\NCC2c3ccccc3CCN2C1=O)c1ccccc1[N+](=O)[O-] (stereo unspecified) was > 100 µM

So, O=C(/C=C1\NCC2c3ccccc3CCN2C1=O)c1ccc(-c2ccccc2)cc1 (stereo unspecified) ? Its EC50 was > 100 µM

Reported EC50 ( COc1cccc(C(=O)/C=C2\NCC3c4ccccc4CCN3C2=O)c1 (stereo unspecified) ) = > 100 µM

The molecule identified as O=C(/C=C1\NCC2c3ccccc3CCN2C1=O)c1cccc(Cl)c1 (stereo unspecified) registered its EC50 at > 100 µM

Per the record, COc1ccc(C(=O)/C=C2\NCC3c4ccccc4CCN3C2=O)cc1OC (stereo unspecified) has EC50 of 93 µM

# molecule CC(C)(C)c1cc(O)ccc1O [CHEBI:78886] ; its EC50 = 91.5 µM

Field EC50 (entry COc1ccc2c(c1)CCN1C(=O)/C(=C/C(=O)c3ccccc3)NCC21 (stereo unspecified) ) reads > 100 µM

The reported value for COc1cc2c(cc1OC)C1CN/C(=C\C(=O)c3ccccc3)C(=O)N1CC2 (stereo unspecified) in terms of EC50 is > 100 µM

The value of EC50 measured for the molecule O=C(/C=C1\NCC2c3ccccc3CCN2C1=O)c1cccc(Br)c1 (stereo unspecified) turned out to be 59.1 µM

Memo: O=C(/C=C1\NCC2c3ccccc3CCN2C1=O)c1ccc(Cl)cc1 (stereo unspecified) , reported EC50: > 100 µM

Just so you know, measured EC50 for COc1ccc2c(c1)CCN1C(=O)/C(=C/C(=O)c3ccccc3F)NCC21 (stereo unspecified) came out at > 100 µM

###

Target: Nuclear factor erythroid 2-related factor 2 (Homo sapiens, UniProt Q16236)
Sequence (Q16236 whole entry): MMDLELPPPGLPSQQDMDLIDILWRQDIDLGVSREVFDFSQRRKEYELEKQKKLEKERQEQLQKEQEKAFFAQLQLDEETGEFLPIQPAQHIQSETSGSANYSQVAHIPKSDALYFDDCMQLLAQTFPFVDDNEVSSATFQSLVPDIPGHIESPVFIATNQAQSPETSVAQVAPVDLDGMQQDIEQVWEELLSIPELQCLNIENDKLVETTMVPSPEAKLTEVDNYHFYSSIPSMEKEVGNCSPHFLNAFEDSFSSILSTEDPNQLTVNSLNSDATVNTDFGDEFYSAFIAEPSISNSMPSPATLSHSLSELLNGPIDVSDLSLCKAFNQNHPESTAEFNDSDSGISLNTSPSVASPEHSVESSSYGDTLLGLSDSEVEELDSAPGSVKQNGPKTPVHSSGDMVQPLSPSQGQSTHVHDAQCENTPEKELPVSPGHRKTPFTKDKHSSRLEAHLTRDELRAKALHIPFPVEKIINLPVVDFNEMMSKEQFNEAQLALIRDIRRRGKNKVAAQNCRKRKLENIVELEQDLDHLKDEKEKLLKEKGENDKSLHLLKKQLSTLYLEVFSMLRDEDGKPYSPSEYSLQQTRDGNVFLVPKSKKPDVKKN
Test: Induction of Nrf2-mediated ARE activity in human HepG2-ARE-C8 cells after 12 hrs by luciferase reporter gene assay
pEC50: −log10 of the molar value.
Measured metric: pEC50

>>> data_value("O=C(/C=C1\\NCC2c3ccccc3CCN2C1=O)c1ccc([N+](=O)[O-])cc1 (stereo unspecified)")
"< 4.00"
>>> data_value("O=C(/C=C1\\NCC2c3ccccc3CCN2C1=O)c1cc(F)cc(F)c1 (stereo unspecified)")
4.23
>>> data_value("COc1ccccc1C(=O)/C=C1\\NCC2c3ccccc3CCN2C1=O (stereo unspecified)")
"< 4.00"
>>> data_value("COc1ccc2c(c1)C1CN/C(=C\\C(=O)c3ccc(F)cc3)C(=O)N1CC2 (stereo unspecified)")
4.06

// field: pEC50; key: O=C(/C=C1\NCC2c3ccccc3CCN2C1=O)c1cccc([N+](=O)[O-])c1 (stereo unspecified) ; value = < 4.00

Entry COc1cccc2c1CCN1C(=O)/C(=C/C(=O)c3ccccc3F)NCC21 (stereo unspecified) — recorded pEC50 = < 4.00

###

target: Nuclear factor erythroid 2-related factor 2 (Homo sapiens); experiment: Induction of Nrf2-mediated ARE activity in human HepG2-ARE-C8 cells after 12 hrs by luciferase reporter gene assay
pEC50: −log10 of the molar value.
Measured metric: pEC50

>>> data_value("COc1cccc(C(=O)/C=C2\\NCC3c4cc(OC)c(OC)cc4CCN3C2=O)c1 (stereo not given)")
"< 4.00"

Looking up O=C(/C=C1\NCC2c3ccccc3CCN2C1=O)c1ccccc1F (stereo not given) , I see its pEC50 listed as < 4.00

Looking up O=C(/C=C1\NCC2c3ccccc3CCN2C1=O)c1ccc(F)cc1 (stereo not given) , I found its pEC50 recorded as < 4.00

// pEC50 value for O=C(/C=C1\NCC2c3ccccc3CCN2C1=O)c1cccc(C(F)(F)F)c1 (stereo not given) : < 4.00

Briefly, pEC50 measured for O=C(/C=C1\NCC2c3ccccc3CCN2C1=O)c1ccc(F)c(F)c1 (stereo not given) : < 4.00

Lab note: measured pEC50 of COc1cccc2c1CCN1C(=O)/C(=C/C(=O)c3ccccc3)NCC21 (stereo not given) was 4.23

For COc1cc2c(cc1OC)C1CN/C(=C\C(=O)c3ccccc3F)C(=O)N1CC2 (stereo not given) the compound record lists pEC50 as 4.12

###

List of EC50 values.
target: Nuclear factor erythroid 2-related factor 2 (Homo sapiens, UniProt Q16236); assay: Induction of Nrf2-mediated ARE activity in human HepG2-ARE-C8 cells after 12 hrs by luciferase reporter gene assay

Check out these entries, answers already filled in.
>>> data_value("COc1ccc2c(c1)C1CN/C(=C\\C(=O)c3ccccc3)C(=O)N1CC2 (stereo not drawn)")
"> 100 µM"
>>> data_value("Cc1ccc(C(=O)/C=C2\\NCC3c4ccccc4CCN3C2=O)cc1 (stereo not drawn)")
"> 100 µM"

Kindly review the next compound as well.
EC50 reading for COc1ccc2c(c1)C1CN/C(=C\C(=O)c3cccc([N+](=O)[O-])c3)C(=O)N1CC2 (stereo not drawn) : > 100 µM
